Listed next: entries and their corresponding IC50.
- TARGET_OR_TEST_SYSTEM: HLA B*1503 (Homo sapiens, UniProt P01889, A329T/A93T/A95T/C349S/D201E/D98Y/E187L/E204Q/K202T/N87E/Q94N/R155S/R180L/S121R/S35A/V306I/V36M/Y140S/Y91S)
- EXPERIMENT_NOTES: biochemical
Where a SMILES comes first, the peptide text is derived from it.

MOLECULE	IC50
CC[C@H](C)[C@H](NC(=O)[C@H](CO)NC(=O)[C@@H](N)Cc1c[nH]c2ccccc12)C(=O)N[C@@H](Cc1ccc(O)cc1)C(=O)N[C@@H](CC(C)C)C(=O)N[C@@H](CO)C(=O)N[C@@H](CC(C)C)C(=O)N[C@@H](Cc1c[nH]cn1)C(=O)N[C@@H](Cc1ccc(O)cc1)C(=O)O [3102.0867] (H-WSIYLSLHY-OH)	8.9 nM
C[C@@H](O)[C@H](N)C(=O)N[C@@H](CCCCN)C(=O)N[C@@H](Cc1ccccc1)C(=O)N[C@H](C(=O)N[C@@H](CC(=O)O)C(=O)N[C@@H](Cc1ccccc1)C(=O)N[C@@H](CCC(N)=O)C(=O)N[C@@H](CC(=O)O)C(=O)N[C@@H](Cc1ccccc1)C(=O)O)[C@@H](C)O [3102.1078] (H-TKFTDFQDF-OH)	2.2 nM

Here is the next item to consider.
Notebook: CC(C)[C@H](NC(=O)[C@@H](NC(=O)[C@H](CC(=O)O)NC(=O)[C@H](CO)NC(=O)[C@H](CCC(N)=O)NC(=O)[C@H](CO)NC(=O)[C@H](CCCCN)NC(=O)[C@H](C)N)[C@@H](C)O)C(=O)N[C@@H](Cc1ccccc1)C(=O)O [3102.1191] (H-AKSQSDTVF-OH) , IC50 read as 0.16 nM

====

Listed next: entries and their corresponding IC50.
- TARGET_OR_TEST_SYSTEM: HLA B*1503 (Homo sapiens, UniProt P01889, A329T/A93T/A95T/C349S/D201E/D98Y/E187L/E204Q/K202T/N87E/Q94N/R155S/R180L/S121R/S35A/V306I/V36M/Y140S/Y91S)
- EXPERIMENT_NOTES: biochemical
Where a SMILES comes first, the peptide text is derived from it.
Write the answer as a number in nM, unit excluded.

MOLECULE	IC50 / nM
CSCC[C@H](NC(=O)[C@H](Cc1ccc(O)cc1)NC(=O)[C@H](CC(C)C)NC(=O)[C@@H](N)CC(C)C)C(=O)N[C@@H](Cc1ccccc1)C(=O)N1CCC[C@H]1C(=O)N[C@@H](CC(N)=O)C(=O)N[C@@H](CC(C)C)C(=O)N[C@@H](Cc1ccccc1)C(=O)O [3102.1335] (H-LLYMFPNLF-OH)	0.11
CC[C@H](C)[C@H](NC(=O)[C@@H]1CCCN1C(=O)[C@H](CO)NC(=O)CNC(=O)[C@H](CC(=O)O)NC(=O)[C@H](CC(C)C)NC(=O)[C@@H](NC(=O)[C@H](CCCCN)NC(=O)[C@@H](N)Cc1ccccc1)C(C)C)C(=O)O [3102.1070] (H-FKVLDGSPI-OH)	0.82
CC(C)[C@H](NC(=O)[C@H](Cc1ccccc1)NC(=O)[C@H](Cc1c[nH]cn1)NC(=O)[C@H](CCC(N)=O)NC(=O)[C@@H](N)Cc1ccc(O)cc1)C(=O)N[C@@H](C)C(=O)N[C@@H](CCCNC(=N)N)C(=O)N[C@H](C(=O)N[C@@H](Cc1ccccc1)C(=O)O)C(C)C [3102.1278] (H-YQHFVARVF-OH)	0.4

Notebook: CSCC[C@H](NC(=O)[C@H](CCCCN)NC(=O)[C@@H](N)CCCCN)C(=O)N[C@H](C(=O)N[C@@H](CS)C(=O)NCC(=O)N[C@@H](CCC(N)=O)C(=O)N1CCC[C@H]1C(=O)N[C@@H](CC(C)C)C(=O)O)[C@@H](C)O [3102.1121] (H-KKMTCGQPL-OH) , IC50 read as 1.5

Notebook: CC[C@H](C)[C@H](N)C(=O)N[C@@H](CCSC)C(=O)N[C@@H](Cc1ccccc1)C(=O)N[C@@H](C)C(=O)N[C@@H](CCCCN)C(=O)N[C@H](C(=O)N[C@@H](CC(C)C)C(=O)N[C@@H](CC(=O)O)C(=O)N[C@@H](Cc1ccccc1)C(=O)O)[C@@H](C)O [3102.1190] (H-IMFAKTLDF-OH) , IC50 read as 0.31

Notebook: CC[C@H](C)[C@H](NC(=O)[C@H](CC(N)=O)NC(=O)[C@H](Cc1ccccc1)NC(=O)[C@H](CCSC)NC(=O)[C@@H](N)CC(N)=O)C(=O)N[C@@H](CO)C(=O)N[C@@H](Cc1ccccc1)C(=O)N[C@@H](CCCNC(=N)N)C(=O)N[C@@H](Cc1ccccc1)C(=O)O [3102.0348] (H-NMFNISFRF-OH) , IC50 read as 19

Notebook: CSCC[C@H](NC(=O)[C@@H](NC(=O)[C@H](CO)NC(=O)CNC(=O)[C@H](CC(=O)O)NC(=O)[C@@H](NC(=O)[C@@H](NC(=O)[C@H](CCSC)NC(=O)[C@@H](N)Cc1ccc(O)cc1)C(C)C)C(C)C)C(C)C)C(=O)O [3102.1153] (H-YMVVDGSVM-OH) , IC50 read as 1

====

- TARGET_OR_TEST_SYSTEM: HLA A*3201 (Homo sapiens, UniProt P04439, A270S/D101S/D185E/E176V/E277Q/F133L/G103R/G107R/G231S/H175R/I121M/I218V/I322F/K168Q/L105A/L300P/L318F/M331R/P208A/P217A/Q94H/R106L/R138Q/S129P/T104I/T323A/T345S/V100E/V321M/V358M)
- EXPERIMENT_NOTES: biochemical
- Format: binding
Where a SMILES comes first, the peptide text is derived from it.
READOUT_TYPE: pIC50
Notebook: values listed as pIC50 are -log10 of the concentration (mol/L).

Some solved cases for reference:
MOLECULE	pIC50
CC[C@H](C)[C@H](N)C(=O)N[C@H](C(=O)N[C@@H](Cc1ccccc1)C(=O)N[C@@H](CCSC)C(=O)N[C@@H](CC(N)=O)C(=O)N[C@@H](CC(C)C)C(=O)N[C@@H](Cc1ccc(O)cc1)C(=O)N[C@@H](CO)C(=O)N[C@@H](Cc1ccccc1)C(=O)O)[C@@H](C)CC [3102.1328] (H-IIFMNLYSF-OH)	8.89
CC(C)C[C@H](NC(=O)[C@H](C)N)C(=O)N[C@@H](CC(C)C)C(=O)N[C@@H](CCC(=O)O)C(=O)N[C@@H](CC(C)C)C(=O)N[C@@H](Cc1ccccc1)C(=O)N[C@@H](CC(N)=O)C(=O)N[C@@H](C)C(=O)N[C@@H](Cc1ccccc1)C(=O)O [3102.0961] (H-ALLELFNAF-OH)	6.78
CC[C@H](C)[C@H](NC(=O)[C@H](C)NC(=O)[C@H](Cc1ccccc1)NC(=O)[C@H](CCC(N)=O)NC(=O)[C@@H](N)Cc1c[nH]c2ccccc12)C(=O)N[C@@H](Cc1c[nH]cn1)C(=O)N[C@@H](Cc1ccc(O)cc1)C(=O)N[C@@H](CO)C(=O)N[C@@H](Cc1ccccc1)C(=O)O [3102.1096] (H-WQFAIHYSF-OH)	8.55
CSCC[C@H](NC(=O)[C@H](CC(C)C)NC(=O)[C@@H](N)CCSC)C(=O)N[C@@H](CC(N)=O)C(=O)N[C@@H](Cc1c[nH]cn1)C(=O)N[C@H](C(=O)N[C@@H](C)C(=O)N[C@@H](CC(N)=O)C(=O)N[C@@H](Cc1ccccc1)C(=O)O)C(C)C [3102.0720] (H-MLMNHVANF-OH)	8.08
CC[C@H](C)[C@H](NC(=O)[C@H](CC(C)C)NC(=O)[C@@H](N)CCCNC(=N)N)C(=O)N[C@H](C(=O)N[C@@H](CC(C)C)C(=O)N[C@@H](Cc1ccccc1)C(=O)N[C@@H](CCC(=O)O)C(=O)N[C@H](C(=O)N[C@@H](Cc1ccccc1)C(=O)O)C(C)C)C(C)C [3102.0817] (H-RLIVLFEVF-OH)	7.89

Notebook: CC[C@H](C)[C@H](NC(=O)[C@@H](NC(=O)[C@@H](NC(=O)[C@H](CC(=O)O)NC(=O)[C@@H](NC(=O)[C@H](Cc1ccccc1)NC(=O)[C@@H](NC(=O)[C@@H](NC(=O)[C@@H](N)CO)[C@@H](C)CC)C(C)C)C(C)C)C(C)C)[C@@H](C)CC)C(=O)O [3102.0355] (H-SIVFVDVII-OH) , pIC50 read as 7.23

Notebook: CC[C@H](C)[C@H](NC(=O)[C@H](Cc1ccccc1)NC(=O)[C@H](CC(C)C)NC(=O)[C@@H](NC(=O)[C@@H](N)CC(C)C)[C@@H](C)CC)C(=O)N[C@@H](CO)C(=O)N[C@H](C(=O)N1CCC[C@H]1C(=O)N[C@@H](Cc1ccccc1)C(=O)O)[C@@H](C)CC [3102.0290] (H-LILFISIPF-OH) , pIC50 read as 7.60
